Taken from patent US20120302569A1.

Target: full-length proMMP9(1-707) (SEQ ID NO:1) (Homo sapiens, UniProt P14780, R574P)
Construct: made in house; host or cells: HEK293 (proMMP9, secreted); E. coli (MMP3)
Sequence (P14780 20-707 R574P): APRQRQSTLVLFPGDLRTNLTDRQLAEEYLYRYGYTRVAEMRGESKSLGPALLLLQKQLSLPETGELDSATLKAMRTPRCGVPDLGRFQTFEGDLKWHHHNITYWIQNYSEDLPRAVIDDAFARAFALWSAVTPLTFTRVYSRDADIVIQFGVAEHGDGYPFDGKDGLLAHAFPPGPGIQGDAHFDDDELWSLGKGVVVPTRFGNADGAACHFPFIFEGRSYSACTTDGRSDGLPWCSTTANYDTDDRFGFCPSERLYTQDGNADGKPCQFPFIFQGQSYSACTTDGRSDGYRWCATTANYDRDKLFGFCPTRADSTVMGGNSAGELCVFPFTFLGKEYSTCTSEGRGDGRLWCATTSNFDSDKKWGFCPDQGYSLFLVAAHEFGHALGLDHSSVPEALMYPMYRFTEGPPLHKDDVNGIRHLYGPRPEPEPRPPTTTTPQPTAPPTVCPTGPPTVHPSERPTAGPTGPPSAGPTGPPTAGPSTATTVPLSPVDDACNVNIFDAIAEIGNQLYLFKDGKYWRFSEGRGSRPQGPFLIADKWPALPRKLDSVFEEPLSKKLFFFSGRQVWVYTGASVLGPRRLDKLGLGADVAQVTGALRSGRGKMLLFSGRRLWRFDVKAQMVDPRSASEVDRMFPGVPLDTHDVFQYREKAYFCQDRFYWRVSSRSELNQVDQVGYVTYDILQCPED
Assay: proMMP9/MMP3 P126 Activation Assay
Type: biochemical
Settings: proMMP9(1-707) from HEK293 cells activated by catalytic MMP3
pIC50: −log10 of the molar value.
quantityMeasured: pIC50

Here are 2 molecules together with their reported answers.
molecule="CC(C)Oc1ccc(S(N)(=O)=O)cc1Nc1nc(-c2ccc(OCCN3CCC(F)(F)CC3)cc2)cs1 [Example 31]" quantitymeasured=pIC50 testvalue=5.96
molecule="COc1ccc(F)cc1Nc1nc(-c2ccc(OCCN3CCOCC3)cc2)cs1 [Example 66]" quantitymeasured=pIC50 testvalue=5.74

I = CC(C)Oc1ccc(S(N)(=O)=O)cc1Nc1nc(-c2ccc(C3=CCN(C(C)C)CC3)cc2)cs1 [Example 15]
II = CC(C)Oc1ccc(C(N)=O)cc1Nc1nc(-c2ccc(OCCN3CCC(F)(F)CC3)cc2)cs1 [Example 32]
Which has the smaller recorded pIC50, I or II ? Returns: label corresponding to the selected item.
II
(II: 6.37, I: 7.55)

P = CC(C)Oc1ccc(S(N)(=O)=O)cc1Nc1nc(-c2ccc(CN3CCN(C(C)C)CC3)cc2)cs1 [Example 57]
Q = CC(C)Oc1ccc(S(N)(=O)=O)cc1Nc1nc(-c2ccc(C3=CCNCC3)cc2)cs1 [Example 12]
Could you please tell me which of these two has the higher pIC50: P or Q ? Returns: label corresponding to the selected item.
Q

a = CC(C)Oc1ccc(C(N)=O)cc1Nc1nc(-c2ccc(CN3CCN(C)CC3)cc2)cs1 [Example 48]
b = CC(C)Oc1ccc(S(N)(=O)=O)cc1Nc1nc(-c2ccc(CN3CC[C@@H](F)C3)cc2)cs1 [Example 53]
Could you please tell me which of these two has the higher pIC50: a or b ? Returns: label corresponding to the selected item.
b
